Below, each of the compounds is paired with its reported melting point value.
outcomeMeasure: melting point

compound="C[C@H](NC(=O)c1c(CN2CCN(CCCO)CC2)c(-c2ccccc2)nc2ccc(F)cc12)C1CCCCC1 [Example 9]" outcomemeasure="melting point" recordedvalue="182 to 184 °C"
compound="C[C@H](NC(=O)c1c(CN2CCN(C[C@@H](O)CO)C(=O)C2)c(-c2ccccc2)nc2ccc(F)cc12)C1CCCCC1 [Example 22]" outcomemeasure="melting point" recordedvalue="143 to 145 °C"
compound="C[C@H](NC(=O)c1c(CN2CCN(C[C@@H](O)CO)C(=O)C2)c(-c2ccccc2)nc2ccccc12)C1CCCCC1 [Example 5]" outcomemeasure="melting point" recordedvalue="133 to 135 °C"
compound="C[C@H](NC(=O)c1c(CN2CCN(CCO)C(=O)C2)c(-c2cccs2)nc2ccccc12)C1CCCCC1 [Example 1]" outcomemeasure="melting point" recordedvalue="212 to 215 °C"
compound="C[C@H](NC(=O)c1c(CN2CCN(CCOCCO)CC2)c(-c2cccs2)nc2ccccc12)C1CCCCC1 [Example 11]" outcomemeasure="melting point" recordedvalue="182 to 188 °C"
compound="C[C@H](NC(=O)c1c(CN2CCN(CCO)CC2)c(-c2ccccc2)nc2ccc(F)cc12)C1CCCCC1 [Example 10]" outcomemeasure="melting point" recordedvalue="114 to 116 °C"
compound="C[C@H](NC(=O)c1c(CN2CCN(C[C@H](O)CO)C(=O)C2)c(-c2ccccc2)nc2ccccc12)C1CCCCC1 [Example 4]" outcomemeasure="melting point" recordedvalue="125 to 127 °C"
